# Percent Effect per record follows
biological target: Chromo domain-containing protein 1 (Saccharomyces cerevisiae (strain ATCC 204508 / S288c) (Baker's yeast)); experiment: ScCHD-1 Enzyme Inhibition Assay; format: functional; design: scale not given: in the data most compounds retested in dose-response had high values; details: 30 µM
Only the number, expressed in %, is required.

# annotated cases, reported Percent Effect shown
CN(C)CC1CN(CCOc2cccc(C#N)c2)CCO1 (centres undefined) ... 4.04
COc1ccccc1CN1CCC2(CC1)CC(Oc1ccccn1)CO2 (centres undefined) ... -13.9
CSC(C)(C)CNC(=O)NC1CCSCC1 ... -6.59

INPUT: Find the measured Percent Effect of CN(C)S(=O)(=O)c1ccc(CN2CCCC2c2ccccc2)o1 (centres undefined) and report it.
OUTPUT: -6.96
